Value source: patent US20200069648A1

# subject_of_test: human recombinant SSAO/VAP-1 (Homo sapiens)
# Construct: a cloned cDNA template corresponding to residues 34-763 of human SSAO/VAP-1; TEV cleavage site (N)
# Sequence (Q16853 34-763): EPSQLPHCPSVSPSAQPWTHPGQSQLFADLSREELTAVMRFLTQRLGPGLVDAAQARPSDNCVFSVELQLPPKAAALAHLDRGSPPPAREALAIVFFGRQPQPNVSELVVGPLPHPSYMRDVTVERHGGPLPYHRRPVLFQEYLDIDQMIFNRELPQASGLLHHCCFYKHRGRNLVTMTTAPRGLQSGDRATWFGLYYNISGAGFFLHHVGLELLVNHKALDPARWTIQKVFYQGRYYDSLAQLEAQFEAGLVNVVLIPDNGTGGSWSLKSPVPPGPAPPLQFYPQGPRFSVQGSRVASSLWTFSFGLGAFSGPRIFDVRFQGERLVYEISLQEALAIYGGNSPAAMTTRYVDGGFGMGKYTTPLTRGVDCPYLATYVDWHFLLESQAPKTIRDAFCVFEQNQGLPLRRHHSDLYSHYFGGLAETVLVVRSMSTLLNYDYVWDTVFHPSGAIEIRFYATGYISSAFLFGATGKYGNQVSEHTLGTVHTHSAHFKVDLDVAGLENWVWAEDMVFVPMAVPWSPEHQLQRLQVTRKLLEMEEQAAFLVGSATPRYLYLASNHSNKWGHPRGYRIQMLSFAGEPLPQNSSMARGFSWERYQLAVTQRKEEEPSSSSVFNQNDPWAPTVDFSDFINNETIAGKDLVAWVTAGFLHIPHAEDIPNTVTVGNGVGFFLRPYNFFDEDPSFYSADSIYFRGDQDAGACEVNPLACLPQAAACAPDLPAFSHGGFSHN
# test_summary: Human recombinant SSAO/VAP-1 amine oxidase inhibition
# run_conditions: 30 min preincubation at 37° C., 600 μM benzylamine
Counter-ions that a name gives are not always drawn.
measurement_label: IC50

Would you please look over these solved cases?
compound	measurement_label	meas_value
Cc1nn(C/C(F)=C/CN)c(C)c1Cc1ccc(S(=O)(=O)NC(C)C)cc1 [Compound 11, hydrochloride]	IC50	< 10 µM
Cc1nn(C/C(F)=C/CN)c(C)c1Cc1ccc(S(=O)(=O)N(C)C)cc1Cl [Compound 3, hydrochloride]	IC50	> 30 µM
Cc1nn(Cc2ccc(S(C)(=O)=O)cc2Cl)c(C)c1C/C(F)=C/CN [Compound 21, hydrochloride]	IC50	< 10 µM
Cc1nn(C/C(F)=C/CN)c(C(C)O)c1Cc1ccc(S(=O)(=O)N(C)C)c(Cl)c1 (single isomer, unassigned) [Compound 53, hydrochloride]	IC50	> 30 µM
Cc1c(Cc2ccc(S(=O)(=O)N(C)C)cc2)c(C(=O)N(C)C)nn1C/C(F)=C/CN [Compound 32, hydrochloride]	IC50	> 30 µM
Cc1nn(C/C(F)=C/CN)c(C(C)O)c1Cc1ccc(S(=O)(=O)N(C)C)c(Cl)c1 (single isomer, unassigned) [Compound 52, hydrochloride]	IC50	> 30 µM
Cc1nn(C/C(F)=C/CN)c(C)c1Cc1ccc(S(=O)(=O)N(C)C)c2ccccc12 [Compound 9, hydrochloride]	IC50	> 10 µM
CCOC(=O)c1c(Cc2ccc(S(=O)(=O)N(C)C)cc2)c(C)nn1C/C(F)=C/CN [Compound 27, hydrochloride]	IC50	> 30 µM
Cc1nn(C/C(F)=C/CN)c(C)c1Cc1ccc(S(=O)(=O)N(C)C)c(C(F)(F)F)c1 [Compound 18, hydrochloride]	IC50	> 30 µM
Cc1nn(C/C(F)=C/CN)c(C)c1Cc1ccc(S(=O)(=O)N(C)C)c(OC(F)(F)F)c1 [Compound 17, hydrochloride]	IC50	> 10 µM

Looking up Cc1nn(C/C(F)=C/CN)c(C)c1Cc1ccc(C(=O)N(C)C)cc1 [Compound 14, hydrochloride] , I see its IC50 listed as > 30 µM

For reference, reported IC50 for Cc1c(Cc2ccc(S(=O)(=O)N(C)C)cc2)c(C(=O)O)nn1C/C(F)=C/CN [Compound 31, hydrochloride] stands at > 30 µM
